PROTOCOL_SUMMARY: Inhibition of spontaneous lipid peroxidation at 10e-5 M in rat brain homogenate
For each record, write down the corresponding inhibition.
Just the number please, in %, no unit attached.

Enquiry: Would you kindly share the measured inhibition for `O=C(c1cccnc1)c1ccc2[nH]c(=O)[se]c2c1` ?
Return: -5

Enquiry: Same read-out for `CNc1ccccc1[Se][Se]c1ccccc1NC` ?
Return: 52

Enquiry: Same read-out for `Cn1c(=O)[se]c2cc(C(=O)c3cccnc3)ccc21` ?
Return: 4

Enquiry: Same read-out for `O=c1[nH]c2ccc(Cc3ccccc3)cc2[se]1` ?
Return: -6

====

PROTOCOL_SUMMARY: In vitro glutathione peroxidase activity at 2*10e-7M using tert-butyl hydroperoxide, activity given in percentage of ebselen''s activity
Type: functional
Kindly apply the following: Y if GSH-Px activity is less than 200, N in every other case.

Enquiry: Please check: GSH-Px activity for `CNc1ccc(C(=O)c2ccccc2)cc1[Se][Se]c1cc(C(=O)c2ccccc2)ccc1NC` , strictly under 200 or not?
Return: N

Enquiry: Same read-out for `CCCC(=O)c1ccc2c(c1)[se]c(=O)n2C` ?
Return: Y

Enquiry: Same read-out for `CN(C)C(=O)Nc1ccccc1[Se][Se]c1ccccc1NC(=O)N(C)C` ?
Return: Y

Enquiry: Same read-out for `Nc1ccc(Cc2ccccc2)cc1[Se][Se]c1cc(Cc2ccccc2)ccc1N` ?
Return: N

Enquiry: Same read-out for `O=C(c1ccc(Cl)cc1)c1ccc2[nH]c(=O)[se]c2c1` ?
Return: Y

Enquiry: Same read-out for `Cn1c(=O)[se]c2cc(C(=O)c3ccccc3)ccc21` ?
Return: Y

Enquiry: Same read-out for `CN(C)C(=O)Nc1ccc(C(=O)c2ccccc2)cc1[Se][Se]c1cc(C(=O)c2ccccc2)ccc1NC(=O)N(C)C` ?
Return: N

Enquiry: Same read-out for `Cn1c(=O)[se]c2cc(C(=O)c3ccc(Cl)cc3)ccc21` ?
Return: Y

====

For each record, write down the corresponding GSH-Px activity.
PROTOCOL_SUMMARY: In vitro glutathione peroxidase activity at 2*10e-7M using tert-butyl hydroperoxide, activity given in percentage of ebselen''s activity
Type: functional
API note: the answer field is a bare number with no unit suffix.

Enquiry: Would you kindly share the measured GSH-Px activity for `CC(=O)c1ccc2[nH]c(=O)[se]c2c1` ?
Return: 12

Enquiry: Same read-out for Cc1c(C)c2c(c(C)c1O)CCC(C)(C(=O)O)O2 (centres undefined) ?
Return: 0

Enquiry: Same read-out for O=c1[nH]c2ccc(C(O)c3ccccc3)cc2[se]1 (centres undefined) ?
Return: 10

Enquiry: Same read-out for `CCCC(=O)c1ccc2[nH]c(=O)[se]c2c1` ?
Return: 0

====

For each record, write down the corresponding inhibition.
PROTOCOL_SUMMARY: Inhibition of [Fe(2+)]/ascorbate-induced lipid peroxidation at 10e-5 M in rat brain homogenate
Just the number please, in %, no unit attached.

Enquiry: Would you kindly share the measured inhibition for `CNc1ccc(C(=O)c2ccccc2)cc1[Se][Se]c1cc(C(=O)c2ccccc2)ccc1NC` ?
Return: 100

Enquiry: Same read-out for O=c1[nH]c2ccc(C(O)c3ccccc3)cc2[se]1 (stereo unspecified) ?
Return: -1

Enquiry: Same read-out for `Nc1ccc(C(=O)c2ccccc2)cc1[Se][Se]c1cc(C(=O)c2ccccc2)ccc1N` ?
Return: 95

Enquiry: Same read-out for `Nc1ccc(Cc2ccccc2)cc1[Se][Se]c1cc(Cc2ccccc2)ccc1N` ?
Return: 97

Enquiry: Same read-out for `Cn1c(=O)[se]c2cc(C(=O)c3cccnc3)ccc21` ?
Return: 1

Enquiry: Same read-out for `CN(C)C(=O)Nc1ccccc1[Se][Se]c1ccccc1NC(=O)N(C)C` ?
Return: 97

Enquiry: Same read-out for `Cn1c(=O)[se]c2cc(C(=O)c3ccc(Cl)cc3)ccc21` ?
Return: 2

Enquiry: Same read-out for Nc1ccc(C(O)c2ccccc2)cc1[Se][Se]c1cc(C(O)c2ccccc2)ccc1N (stereo unspecified) ?
Return: 97

Enquiry: Same read-out for `Cn1c(=O)[se]c2cc(C(=O)c3ccccc3)ccc21` ?
Return: -3

Enquiry: Same read-out for `O=C(c1ccc(Cl)cc1)c1ccc2[nH]c(=O)[se]c2c1` ?
Return: 5

Enquiry: Same read-out for `O=c1[nH]c2ccc(Cc3ccccc3)cc2[se]1` ?
Return: -7
